Biological target: EphrinB2-EphB4 (Homo sapiens, UniProt P54760)
Construct: soluble human EphB1-His, EphB2-His, and EphB4-His ectodomains; commercially available human EphrinB1-Fc (EB1), EphrinB2-Fc (EB2), and EphrinB3-Fc (EB3) ectodomain proteins; purchased
Sequence (P54760 16-539 limits assumed): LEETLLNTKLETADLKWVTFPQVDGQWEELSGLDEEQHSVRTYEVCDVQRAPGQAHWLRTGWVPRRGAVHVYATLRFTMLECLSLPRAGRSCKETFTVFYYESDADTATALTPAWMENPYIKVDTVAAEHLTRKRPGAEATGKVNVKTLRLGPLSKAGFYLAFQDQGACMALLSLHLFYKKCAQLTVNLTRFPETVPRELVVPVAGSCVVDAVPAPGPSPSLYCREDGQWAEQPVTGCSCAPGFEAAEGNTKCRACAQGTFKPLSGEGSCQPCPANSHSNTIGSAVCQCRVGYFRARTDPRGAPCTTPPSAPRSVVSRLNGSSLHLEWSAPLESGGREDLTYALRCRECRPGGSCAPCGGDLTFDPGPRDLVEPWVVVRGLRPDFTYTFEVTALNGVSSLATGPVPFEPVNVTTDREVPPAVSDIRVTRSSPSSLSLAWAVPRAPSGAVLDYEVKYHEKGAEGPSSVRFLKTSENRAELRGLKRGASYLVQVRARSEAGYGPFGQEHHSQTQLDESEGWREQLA
Test: Octet 80 sec association/500 sec dissociation, immobilized human EphrinB2-Fc binding to soluble human EphB4-His
Conditions: at 3.2 μM and 580 seconds; immobilized human EphrinB2; 25 nM soluble human EphB4
A collection of molecules and their measured EphB4 Inhibition Percent, Inhibition of Association-Dissociation
Give your result in % as a bare value.

Record excerpt, results attached:
[in] For the molecule O=S1(=O)CCN(Cc2cc(Br)c(O)c3ncccc23)CC1 [Compound 17] , what EphB4 Inhibition Percent, Inhibition of Association-Dissociation is on record?
[out] 37.2

[in] For the molecule Cc1ccc2c(CN3CCOCC3)cc(Br)c(O)c2n1 [Compound 57] , what EphB4 Inhibition Percent, Inhibition of Association-Dissociation is on record?
[out] 8.7

[in] For the molecule COCc1cc(CN2CCN(C)CC2)c(O)c2ncccc12 [Compound 77, reference compound] , what EphB4 Inhibition Percent, Inhibition of Association-Dissociation is on record?
[out] 2.7

[in] For the molecule Oc1ccc(CN2CCN(c3ccc(I)cc3)CC2)c2cccnc12 [Compound 32] , what EphB4 Inhibition Percent, Inhibition of Association-Dissociation is on record?
[out] 42.5

[in] For the molecule Oc1c(I)cc(CN2CCN(Cc3ccc(Br)cc3)CC2)c2cccnc12 [Compound 46] , what EphB4 Inhibition Percent, Inhibition of Association-Dissociation is on record?
[out] 32.0

---
[in] For the molecule Oc1c(Cl)cc(CN2CCOCC2)c2cccnc12 [Compound 4] , what EphB4 Inhibition Percent, Inhibition of Association-Dissociation is on record?
[out] 35.5

[in] For the molecule O=S1(=O)CCN(Cc2ccc(O)c3ncccc23)CC1 [Compound 15] , what EphB4 Inhibition Percent, Inhibition of Association-Dissociation is on record?
[out] 19.0

[in] For the molecule Oc1ccc(CN2CCN(C3CCCC3)CC2)c2cccnc12 [Compound 83] , what EphB4 Inhibition Percent, Inhibition of Association-Dissociation is on record?
[out] 0.5
